Experiment: Intrinsic aqueous solubility and solubility increase in nanoparticles
Format: physicochemical
Conditions: versus intrinsic aqueous solubility
metric: increase of solubility by incorporation into the nanoparticles (fold)

Examples with their reported increase of solubility by incorporation into the nanoparticles follow.
CC(C)(C)c1nc(-c2cccc(NS(=O)(=O)c3c(F)cccc3F)c2F)c(-c2ccnc(N)n2)s1: 1000
CC(=O)Nc1cccc(-n2c(=O)n(C3CC3)c(=O)c3c(Nc4ccc(I)cc4F)n(C)c(=O)c(C)c32)c1: 221

I. CC(=O)O[C@@]12CO[C@@H]1C[C@H](O)[C@@]1(C)C(=O)[C@H](O)C3=C(C)[C@@H](OC(=O)[C@H](O)[C@@H](NC(=O)OC(C)(C)C)c4ccccc4)C[C@@](O)([C@@H](OC(=O)c4ccccc4)[C@H]21)C3(C)C
II. O=c1cc(N2CCOCC2)oc2c(-c3ccccc3)cccc12
III. CO[C@H]1C[C@@H]2CC[C@@H](C)[C@@](O)(O2)C(=O)C(=O)N2CCCC[C@H]2C(=O)O[C@H]([C@H](C)C[C@@H]2CC[C@@H](OCCO)[C@H](OC)C2)CC(=O)[C@H](C)/C=C(\C)[C@@H](O)[C@@H](OC)C(=O)[C@H](C)C[C@H](C)/C=C/C=C/C=C/1C
List by increasing increase of solubility by incorporation into the nanoparticles. // format: requested-order list of labels
II, III, I
(II: 8 fold, III: 201 fold, I: 455 fold)

Just for reference, patent US10016422B2 is where these values come from.
